basal output G0 (log10) for assorted variants
B1: library; the commonest letter at each place (parent)
chain: MKPVTLYDVAEYAGVSYQTVSRVVNQASHVSAKTREKVEAAMAELNYIPNRVAQQLAGKQSLLIGVATSSLALHAPSQIVAAIKSRADQLGASVVVSMVERSGVEACKAAVHNLLAQRVSGLIINYPLDDQDAIAVEAACTNVPALFLDVSDQTPINSIIFSHEDGTRLGVEHLVALGHQQIALLAGPLSSVSARLRLAGWHKYLTRNQIQPIAEREGDWSAMSGFQQTMQMLNEGIVPTAMLVANDQMALGAMRAITESGLRVGADISVVGYDDTEDSSCYIPPLTTIKQDFRLLGQTSVDRLLQLSQGQAVKGNQLLPVSLVKRKTTLAPNTQTASPRALADSLMQLARQVSRLESGQ

variants of: B1; test: basal output G0 (YFP, no IPTG) (log10 MEF); higher = higher reporter expression without inducer; details: with IPTG
Just the number, please, no unit after it.

Reference set, count: 4
Mutation label	Val
E36V Q89H D132G A138D E277A Q306E S322T	2.12
P76Q V150A N157D Q181H I210L M254T I283N	4.24
V271M	2.19
S70R V136E	4.55

Assign basal output G0 (log10) to the following record: S70R N208Y
2.66

Assign basal output G0 (log10) to the following record: A82V
1.71

Assign basal output G0 (log10) to the following record: A194V
2.01

Assign basal output G0 (log10) to the following record: A72V K84N I210F M254T T336S
4.37

Assign basal output G0 (log10) to the following record: G91D V94A R101G S158C T167M E172D A176S F226Y T276S T299A
4.33

Assign basal output G0 (log10) to the following record: S69T S97T
2.65

Assign basal output G0 (log10) to the following record: E11K A27G K37N H112L A139V S191P
3.37

Assign basal output G0 (log10) to the following record: M42I R51C
3.21

Assign basal output G0 (log10) to the following record: S70R V150A S190T F226L
3.37

Assign basal output G0 (log10) to the following record: V94L V99I V104I L307F
2.75

Assign basal output G0 (log10) to the following record: V80L S279T
2.07

Assign basal output G0 (log10) to the following record: S70R I83F
3.18

Assign basal output G0 (log10) to the following record: A87P V301M E357G
4.51

Assign basal output G0 (log10) to the following record: S70R A87P V301M E357G
4.57

Assign basal output G0 (log10) to the following record: S69T V80L
1.09

Assign basal output G0 (log10) to the following record: Q291L
2.22

Assign basal output G0 (log10) to the following record: I83M S97T V136E
4.52

Assign basal output G0 (log10) to the following record: S70R Q231R
2.67

Assign basal output G0 (log10) to the following record: S69F V95A A110E I159S
2.8

Assign basal output G0 (log10) to the following record: P285S V301M S308P M347V
3.59

Assign basal output G0 (log10) to the following record: V15I F161I A266T K290R M347I
3.11
